- target of assay: T1, Human VSIG4-L-Fc (human)
- T1 construct: also called hVSIG4-L-Fc; hVSIG4-L
- T1 sequence (chain, as listed by the source limits assumed): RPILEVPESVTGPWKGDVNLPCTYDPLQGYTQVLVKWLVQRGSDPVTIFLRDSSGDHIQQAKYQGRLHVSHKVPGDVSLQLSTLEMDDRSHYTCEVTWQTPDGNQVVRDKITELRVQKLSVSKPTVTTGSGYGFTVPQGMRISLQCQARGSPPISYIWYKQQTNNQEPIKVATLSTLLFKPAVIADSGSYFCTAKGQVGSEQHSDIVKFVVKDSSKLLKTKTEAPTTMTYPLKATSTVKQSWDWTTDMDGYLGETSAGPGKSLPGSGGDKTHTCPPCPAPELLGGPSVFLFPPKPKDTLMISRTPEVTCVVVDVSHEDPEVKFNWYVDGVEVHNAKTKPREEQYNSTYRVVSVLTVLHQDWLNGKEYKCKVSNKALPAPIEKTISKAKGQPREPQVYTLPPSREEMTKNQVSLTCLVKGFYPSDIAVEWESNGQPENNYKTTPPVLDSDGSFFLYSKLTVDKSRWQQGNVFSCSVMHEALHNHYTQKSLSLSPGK
- experimental protocol: BLI binning on hVSIG4-L-Fc, competitor 12A08 first;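 also: normalized to binding of second antibody without first competitor antibody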
experimental endpoint: normalized maximum binding nm shift (normalized)
Only the number, expressed in normalized, is required.

input: Please report the recorded normalized maximum binding nm shift for 15C04 mouse/human chimeric IgG4 (S228P) kappa (antibody, V domains shown) VH: QIQLQESGPSLVRPSQTLSLTCSVTGDSITSGYWNWIRKFPGDKLEYLGYISYSGFTYYNPSLKSRISITRDTSKNQYYLQLNSVTTEDTATYYCASSYYGSSLGFPYWGQGTLVTVSA VL: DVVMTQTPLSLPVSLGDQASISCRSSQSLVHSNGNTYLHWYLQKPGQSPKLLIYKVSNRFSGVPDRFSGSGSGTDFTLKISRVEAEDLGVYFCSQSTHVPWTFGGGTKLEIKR .
output: 0.8

input: Which normalized maximum binding nm shift reading was recorded for the binder 14D12 mouse/human chimeric IgG4 (S228P) kappa (antibody, V domains shown) VH: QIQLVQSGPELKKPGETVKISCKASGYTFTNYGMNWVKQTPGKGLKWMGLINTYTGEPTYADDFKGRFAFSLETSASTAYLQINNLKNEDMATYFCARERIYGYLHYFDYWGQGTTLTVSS VL: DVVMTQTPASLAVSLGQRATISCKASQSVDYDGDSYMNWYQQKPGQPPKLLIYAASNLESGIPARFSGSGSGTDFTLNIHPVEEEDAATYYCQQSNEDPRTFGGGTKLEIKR ?
output: 0.73

input: For 15A06 mouse/human chimeric IgG4 (S228P) kappa (antibody, V domains shown) VH: QVQMKQSGPSLVRPSQTLSLTCSVTGDSITSGYWNWIRKFPGDKFEYLGYISYSGFTYYNPSLKSRVSITRDTSKNQYYLQLHSVTTEDTATYYCASSKYGSSLGFPYWGQGTLVTVSA VL: DVVMTQTPLSLPVSLGDQASISCRSSQSLVHSNGNTYLHWYLQKPGQSPKLLIYKVSNRFSGVPDRFSGSGSGTDFTLKISRVEAEDLGVYFCSQSTHVPFTFGSGTKLEIKR , what is its reported normalized maximum binding nm shift?
output: 0.88
